- Test: Probe fluorescence ratio response to arachidonic acid relative to ADIFAB2
- Format: binding
- Condition Info: arachidonic acid; response relative to ADIFAB2
- Description: In an alternate preferred embodiment, the protein is rI-FABP that has Ala substituted for Leu at position 72 (rI-FABP-L72A) with the resulting probe named ADIFAB2. […] ADIFAB2 also has an altered spectral response, making it especially useful for measurements of FFAu in blood samples (Apple et al, Clinical Proteomics, (2004) 1:41-44, U.S. patent application Ser. No. 10/670,958). […] The baseline value for this ratio, measured in the absence of analyte, is designated R0. […]
In this section, each of the molecules is paired with its reported DR/DR AA.
Parameter Measured: DR/DR AA

Molecule	Reported
14I 72G 117V (protein, listed as Rattus norvegicus, PEPTIDE (1)...(131) wild-type rat intestinal fatty acid binding protein) AFDGTWKVDRNENIEKFMEKMGINVVKRKLGAHDNLKLTITQEGNKFTVKESSNFRNIDVVFELGVDFAYSGADGTELTGTWTMEGNKLVGKFKRVDNGKELIAVREISGNELIQTVTYEGVEAKRIFKKE	0.928
21W 72A (protein, listed as Rattus norvegicus, PEPTIDE (1)...(131) wild-type rat intestinal fatty acid binding protein) AFDGTWKVDRNENYEKFMEKWGINVVKRKLGAHDNLKLTITQEGNKFTVKESSNFRNIDVVFELGVDFAYSAADGTELTGTWTMEGNKLVGKFKRVDNGKELIAVREISGNELIQTYTYEGVEAKRIFKKE	3.829
